These measurements were taken from FireProtDB (doi:10.1016/j.bpc.2008.09.020).

Measured unfolding free energy of individual entries
B1: Cytochrome c-551, P00099 (parent)
chain: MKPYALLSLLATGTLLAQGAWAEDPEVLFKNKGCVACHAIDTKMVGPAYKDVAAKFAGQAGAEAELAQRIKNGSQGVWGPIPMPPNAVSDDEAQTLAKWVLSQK

variants of: B1; conditions: Pseudomonas aeruginosa (strain ATCC 15692 / DSM 22644 / CIP 104116 / JCM 14847 / LMG 12228 / 1C / PRS 101 / PAO1); pH 5; 25 °C; GdnHCl; CD; Sodium acetate 20 mM; structure 451C; whole UniProt chain shown
// unit must come after the numeric part

Below, 6 variants whose answers are already recorded.
sequence="MKPYALLSLLATGTLLAQGAWAEDPEVLFKNKGCVACHAIDTKMVGPAYKDVAAKYAGQAGAEAYLAQRIKNGSQGVWGPIPMPPNAVSDDEAQTLAKWILSQK [F56Y E65Y V100I]" result_type="unfolding free energy" recorded_measurement="8.39 kcal/mol"
sequence="MKPYALLSLLATGTLLAQGAWAEDPEVLFKNKGCVACHAIDTKMVGPAYKDVAAKYAGQAGAEAELAQRIKNGSQGVWGPIPMPPNAVSDDEAQTLAKWVLSQK [F56Y]" result_type="unfolding free energy" recorded_measurement="6.78 kcal/mol"
sequence="MKPYALLSLLATGTLLAQGAWAEDPEVLAKNKGCMACHAIDTKMVGPAYKDVAAKYAGQAGAEAYLAQRIKNGSQGVWGPIPMPPNAVSDDEAQTLAKWVLSQK [F29A V35M F56Y E65Y]" result_type="unfolding free energy" recorded_measurement="9.21 kcal/mol"
sequence="MKPYALLSLLATGTLLAQGAWAEDPEVLFKNKGCVACHAIDTKMVGPAYKDVAAKYAGQAGAEAYLAQRIKNGSQGVWGPIPMPPNAVSDDEAQTLAKWVLSQK [F56Y E65Y]" result_type="unfolding free energy" recorded_measurement="7.71 kcal/mol"
sequence="MKPYALLSLLATGTLLAQGAWAEDPEVLAKNKGCMACHAIDTKMVGPAYKDVAAKFAGQAGAEAELAQRIKNGSQGVWGPIPMPPNAVSDDEAQTLAKWILSQK [F29A V35M V100I]" result_type="unfolding free energy" recorded_measurement="7.74 kcal/mol"
sequence="MKPYALLSLLATGTLLAQGAWAEDPEVLFKNKGCVACHAIDTKMVGPAYKDVAAKFAGQAGAEAELAQRIKNGSQGVWGPIPMPPNAVSDDEAQTLAKWILSQK [V100I]" result_type="unfolding free energy" recorded_measurement="6.93 kcal/mol"

Problem: Can you look up the measured unfolding free energy of MKPYALLSLLATGTLLAQGAWAEDPEVLAKNKGCMACHAIDTKMVGPAYKDVAAKFAGQAGAEAELAQRIKNGSQGVWGPIPMPPNAVSDDEAQTLAKWVLSQK [F29A V35M] for me?
Result: 7.37 kcal/mol

Problem: Can you look up the measured unfolding free energy of MKPYALLSLLATGTLLAQGAWAEDPEVLAKNKGCMACHAIDTKMVGPAYKDVAAKYAGQAGAEAYLAQRIKNGSQGVWGPIPMPPNAVSDDEAQTLAKWILSQK [F29A V35M F56Y E65Y V100I] for me?
Result: 10.2 kcal/mol

Problem: Can you look up the measured unfolding free energy of MKPYALLSLLATGTLLAQGAWAEDPEVLFKNKGCVACHAIDTKMVGPAYKDVAAKFAGQAGAEAYLAQRIKNGSQGVWGPIPMPPNAVSDDEAQTLAKWVLSQK [E65Y] for me?
Result: 6.57 kcal/mol
